Measured folding enthalpy, listed per entry for reference.
assay: folding enthalpy; higher = less favourable; fluorescence melt of hairpins on a sequencing array, two-state fit; conditions: sodium 0.088 M
PARAMETER_MEASURED: folding enthalpy (kcal/mol)

[[record]]
residues = "GCGGGCTGCCGC ((((....))))"
parameter_measured = "folding enthalpy"
quantitative_result = -19.5

[[record]]
residues = "GCCCCGCGAAAGCTAGGC (((..((....))..)))"
parameter_measured = "folding enthalpy"
quantitative_result = -18.7

[[record]]
residues = "GCGTGAGGAAACTTACGC ((((.((....)).))))"
parameter_measured = "folding enthalpy"
quantitative_result = -33.8

[[record]]
residues = "GCGACCCCGAAAGGGCGC (((..(((....))))))"
parameter_measured = "folding enthalpy"
quantitative_result = -29.1

[[record]]
residues = "GTCCTCGAAAGAGGGAC ((((((....))).)))"
parameter_measured = "folding enthalpy"
quantitative_result = -15.7

[[record]]
residues = "GACACCGAAAGGTATGTC ((((((....)))..)))"
parameter_measured = "folding enthalpy"
quantitative_result = -19.6

[[record]]
residues = "GCAGTCGGAAACGACTAC (.(((((....))))).)"
parameter_measured = "folding enthalpy"
quantitative_result = -13.4

[[record]]
residues = "GCTCCCGGAAACGAGAGC ((((.((....)).))))"
parameter_measured = "folding enthalpy"
quantitative_result = -36.5

[[record]]
residues = "GGTCTCGAAAGAGTTACC ((((((....)))..)))"
parameter_measured = "folding enthalpy"
quantitative_result = -17.3

[[record]]
residues = "CGTCCGGAAACGGCAACG ((((((....)))..)))"
parameter_measured = "folding enthalpy"
quantitative_result = -14.8

[[record]]
residues = "GTACAGGGAAACTTGTGC (.(((.(....).))).)"
parameter_measured = "folding enthalpy"
quantitative_result = -16

[[record]]
residues = "GGTTCTGGAAACGGAACC (((((.(....).)))))"
parameter_measured = "folding enthalpy"
quantitative_result = -45

